- Experimental Protocol: Phase 1 Study ABI-1648-006, single oral dose pharmacokinetics
- Condition Info: female, human, plasma, po, 5 mg
Readout Name: CL/F (mL/min/kg)
Reply with just the number (in mL/min/kg).

Q. Please give the measured CL/F for this molecule: CO[C@H]1/C=C/O[C@@]2(C)Oc3c(C)c(O)c4c(=O)c(c5oc6cc(N7CCN(CC(C)C)CC7)cc(O)c6nc-5c4c3C2=O)NC(=O)/C(C)=C\C=C\[C@H](C)[C@H](O)[C@@H](C)[C@@H](O)[C@@H](C)[C@H](OC(C)=O)[C@@H]1C
A. 3.83

* * *

- Experimental Protocol: Phase 1 Study ABI-1648-006, single oral dose pharmacokinetics
- Condition Info: male, human, plasma, po, 12.5 mg, Distribution t1/2 Mean, males, single oral dose 12.5 mg
Readout Name: half-life (h)
Lab book: enter the figure in h, no units written.

Q. I have this compound here, CO[C@H]1/C=C/O[C@@]2(C)Oc3c(C)c(O)c4c(=O)c(c5oc6cc(N7CCN(CC(C)C)CC7)cc(O)c6nc-5c4c3C2=O)NC(=O)/C(C)=C\C=C\[C@H](C)[C@H](O)[C@@H](C)[C@@H](O)[C@@H](C)[C@H](OC(C)=O)[C@@H]1C [rifalazil] , and I need its recorded half-life.
A. 7.7

* * *

- Experimental Protocol: Phase 1 Study ABI-1648-006, single oral dose pharmacokinetics
- Condition Info: female, human, plasma, po, 12.5 mg
Readout Name: CL/F
Answer format reminder: number followed by unit.

Q. Give its CL/F value. Item: CO[C@H]1/C=C/O[C@@]2(C)Oc3c(C)c(O)c4c(=O)c(c5oc6cc(N7CCN(CC(C)C)CC7)cc(O)c6nc-5c4c3C2=O)NC(=O)/C(C)=C\C=C\[C@H](C)[C@H](O)[C@@H](C)[C@@H](O)[C@@H](C)[C@H](OC(C)=O)[C@@H]1C [rifalazil]
A. 6.5 mL/min/kg

* * *

- Experimental Protocol: Non-clinical oral pharmacokinetics in the beagle dog
- Assay type: in vivo
- Condition Info: plasma, po; beagle dog, 10 mg/kg
Readout Name: bioavailability

Q. Please give the measured bioavailability for this compound: CO[C@H]1/C=C/O[C@@]2(C)Oc3c(C)c(O)c4c(=O)c(c5oc6cc(N7CCN(CC(C)C)CC7)cc(O)c6nc-5c4c3C2=O)NC(=O)/C(C)=C\C=C\[C@H](C)[C@H](O)[C@@H](C)[C@@H](O)[C@@H](C)[C@H](OC(C)=O)[C@@H]1C
A. 16 to 17%

* * *

- Experimental Protocol: Phase 1 Study ABI-1648-006, multiple oral dose pharmacokinetics
- Condition Info: female, human, plasma, oral, 2.5 mg
Readout Name: half-life (h)
Write the value in h as a bare number.

Q. Fill blank: measured half-life of the molecule CO[C@H]1/C=C/O[C@@]2(C)Oc3c(C)c(O)c4c(=O)c(c5oc6cc(N7CCN(CC(C)C)CC7)cc(O)c6nc-5c4c3C2=O)NC(=O)/C(C)=C\C=C\[C@H](C)[C@H](O)[C@@H](C)[C@@H](O)[C@@H](C)[C@H](OC(C)=O)[C@@H]1C [rifalazil] is ____.
A. 140

* * *

- Experimental Protocol: Phase 1 Study ABI-1648-006, single oral dose pharmacokinetics
- Condition Info: male, human, plasma, po, 12.5 mg
Readout Name: CL/F (mL/min/kg)
Lab book: enter the figure in mL/min/kg, no units written.

Q. Please report the recorded CL/F for CO[C@H]1/C=C/O[C@@]2(C)Oc3c(C)c(O)c4c(=O)c(c5oc6cc(N7CCN(CC(C)C)CC7)cc(O)c6nc-5c4c3C2=O)NC(=O)/C(C)=C\C=C\[C@H](C)[C@H](O)[C@@H](C)[C@@H](O)[C@@H](C)[C@H](OC(C)=O)[C@@H]1C [rifalazil] .
A. 5.5
